# SUBJECT OF TEST: human ether-à-go-go-related gene (hERG) potassium channel (human)
# Sequence (Q12809 whole entry, looked up): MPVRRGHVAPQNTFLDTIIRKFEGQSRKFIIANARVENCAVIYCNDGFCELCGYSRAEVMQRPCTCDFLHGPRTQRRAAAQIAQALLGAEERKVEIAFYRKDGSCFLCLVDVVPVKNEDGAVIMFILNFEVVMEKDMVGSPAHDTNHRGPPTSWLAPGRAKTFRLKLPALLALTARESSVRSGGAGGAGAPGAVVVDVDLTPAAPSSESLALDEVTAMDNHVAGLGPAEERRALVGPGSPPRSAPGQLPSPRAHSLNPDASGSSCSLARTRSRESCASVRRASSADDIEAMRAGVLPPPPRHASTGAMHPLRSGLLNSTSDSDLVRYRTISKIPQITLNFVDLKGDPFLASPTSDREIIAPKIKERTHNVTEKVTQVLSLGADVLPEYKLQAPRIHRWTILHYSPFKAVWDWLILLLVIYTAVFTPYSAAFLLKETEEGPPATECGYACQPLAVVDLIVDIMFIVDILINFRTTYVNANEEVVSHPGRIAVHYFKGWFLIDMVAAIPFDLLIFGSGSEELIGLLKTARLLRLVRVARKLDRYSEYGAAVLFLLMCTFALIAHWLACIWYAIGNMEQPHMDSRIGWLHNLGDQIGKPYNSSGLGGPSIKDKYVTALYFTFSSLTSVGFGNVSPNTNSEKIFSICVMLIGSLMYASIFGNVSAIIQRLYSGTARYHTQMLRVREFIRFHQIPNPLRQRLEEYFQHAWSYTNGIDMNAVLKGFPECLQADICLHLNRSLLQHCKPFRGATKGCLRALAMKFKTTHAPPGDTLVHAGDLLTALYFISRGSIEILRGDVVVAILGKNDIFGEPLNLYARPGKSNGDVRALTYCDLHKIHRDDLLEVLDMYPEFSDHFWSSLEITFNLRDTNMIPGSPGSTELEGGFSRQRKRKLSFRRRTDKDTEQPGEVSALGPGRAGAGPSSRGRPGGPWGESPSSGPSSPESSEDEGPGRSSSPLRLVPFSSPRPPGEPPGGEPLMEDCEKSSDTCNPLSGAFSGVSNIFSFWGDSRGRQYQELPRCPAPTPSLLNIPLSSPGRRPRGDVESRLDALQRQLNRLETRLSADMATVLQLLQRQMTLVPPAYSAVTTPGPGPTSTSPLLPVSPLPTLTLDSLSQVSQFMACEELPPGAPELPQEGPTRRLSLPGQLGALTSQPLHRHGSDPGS
# METHOD SUMMARY: primary screen, population patch clamp on CHO cells stably expressing hERG; higher = less effect of the substance;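 also: peak tail current of the secondary pulse compared with the same well before compound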
In all, about 310,000 compounds went through this assay and about 14,000 (4.5%) showed an effect of 50% or more. Effects have a minus sign here. For the sample, strong results were picked, then their nearest neighbours and some compounds at random.
Decision: hERG current change (%, negative = inhibition) at 10uM compared against -30%; not below it gives 1.0, below it gives 0.0.

{"MOLECULE": "FC(F)(F)c1ccc(-c2noc(CN3CCCN(C4CCCCC4)CC3)n2)cc1", "ASSIGNED CLASS": 0.0}
{"MOLECULE": "COc1cc(C(=O)NCCCc2nc3ccccc3n2Cc2cc(C)ccc2C)cc(OC)c1OC", "ASSIGNED CLASS": 0.0}
{"MOLECULE": "Clc1ccc(-c2noc(CN3CCCC3)n2)cc1", "ASSIGNED CLASS": 1.0}
{"MOLECULE": "COc1ccc(NC(=S)N2CCCN(Cc3cc(C)ccc3C)C2)cc1", "ASSIGNED CLASS": 1.0}
{"MOLECULE": "CCOc1ccc(NC(=S)N2CCCN(Cc3cccc(Cl)c3)C2)cc1", "ASSIGNED CLASS": 1.0}
{"MOLECULE": "Cc1cccc(-n2c(SCC(=O)NC3CCCC3)nnc2-c2ccoc2C)c1", "ASSIGNED CLASS": 0.0}
{"MOLECULE": "CC(C)Cn1c(CCCNC(=O)c2ccc(F)cc2)nc2ccccc21", "ASSIGNED CLASS": 0.0}
{"MOLECULE": "Cc1ccc(-c2noc(CN3CCCCC3)n2)cc1", "ASSIGNED CLASS": 1.0}
{"MOLECULE": "CCOc1ccccc1-n1c(SCC(=O)NC2CCCC2)nnc1-c1ccoc1C", "ASSIGNED CLASS": 1.0}
{"MOLECULE": "CCn1c(CCCNC(=O)c2ccc(F)cc2)nc2ccccc21", "ASSIGNED CLASS": 0.0}
{"MOLECULE": "Cc1occc1-c1nnc(SCC(=O)NC2CCCC2)n1-c1ccccc1", "ASSIGNED CLASS": 0.0}
{"MOLECULE": "Cc1oc(-c2cc3c(cc2Cl)OCO3)nc1CN1CCCC(C(=O)N2CCOCC2)C1 (centres unmarked)", "ASSIGNED CLASS": 1.0}
{"MOLECULE": "CCOc1ccc(NC(=S)N2CCCN(Cc3cc(C)ccc3C)C2)cc1", "ASSIGNED CLASS": 0.0}
{"MOLECULE": "O=C(CSc1nnc(COc2ccc(Cl)cc2)o1)N1CCN(c2ccccc2)CC1", "ASSIGNED CLASS": 1.0}
{"MOLECULE": "NS(=O)(=O)c1ccc(CCNc2nc3c(-c4cccc(F)c4)nnn3c3ccccc23)cc1", "ASSIGNED CLASS": 1.0}
{"MOLECULE": "COc1ccc(C(=O)NCCCc2nc3ccccc3n2Cc2ccccc2C)cc1OC", "ASSIGNED CLASS": 0.0}
{"MOLECULE": "Cc1oc(-c2ccc(Cl)cc2)nc1CN1CCCC(C(=O)N2CCOCC2)C1 (centres unmarked)", "ASSIGNED CLASS": 0.0}
{"MOLECULE": "CC1CCN(Cc2nc(-c3ccc(Cl)cc3)no2)CC1", "ASSIGNED CLASS": 1.0}
{"MOLECULE": "Cc1occc1-c1nnc(SCC(=O)NC2CCCC2)n1C", "ASSIGNED CLASS": 1.0}
{"MOLECULE": "O=C(c1ccccn1)N(Cc1ccco1)C1(C(=O)NC2CCCC2)CCCCC1", "ASSIGNED CLASS": 1.0}
